From: paper PMC6352943

The molecules listed here are annotated with their inhibition at 10 µM.
# Test system: RXF 393
# TEST_PROTOCOL: NCI 60 cell line single dose screen (SRB)
# Assay type: cell-based
# CONDITION_INFO: Homo sapiens; RXF 393 (renal cancer), single dose 10^−5 M, 48 h; read-out: Growth inhibition percentage
MEASURED_PROPERTY: inhibition at 10 µM (%)

1) Cc1nn(-c2ccc(F)cc2)c2nc(N)nc(N)c12 [Compound 5] :: -13
2) Cc1nn(-c2ccc(F)cc2)c2nc[nH]c(=O)c12 [Compound 3] :: -11.4
3) Cc1nn(-c2ccc(F)cc2)c2ncnc(Cl)c12 [Compound 6] :: -3.61

====

MEASURED_PROPERTY: melting point

1) Cc1nn(-c2ccc(F)cc2)c2ncnc(N)c12 :: > 300 °C
2) Cc1nn(-c2ccc(F)cc2)c2ncnc(NN=Cc3ccncc3)c12 [Compound 10d] :: 262 to 264 °C
3) COc1cc(C=NNc2ncnc3c2c(C)nn3-c2ccc(F)cc2)cc(OC)c1OC [Compound 10c] :: 222 to 224 °C
4) Cc1nn(-c2ccc(F)cc2)c2nc(N)nc(N)c12 :: > 300 °C
5) Cc1nn(-c2ccc(F)cc2)c2ncnc(NN)c12 :: 208 to 210 °C
6) Cc1nn(-c2ccc(F)cc2)c2nc[nH]c(=O)c12 :: > 300 °C
7) COc1cc(C=NNc2ncnc3c2c(C)nn3-c2ccc(F)cc2)ccc1O [Compound 10b] :: 221 to 223 °C
8) Cc1nn(-c2ccc(F)cc2)c2ncnc(Cl)c12 :: 178 to 180 °C
9) Cc1nn(-c2ccc(F)cc2)c2ncnc(N3CCN(c4ccc(Cl)cc4)CC3)c12 :: 167 to 169 °C

====

# Test system: SK-OV-3
# TEST_PROTOCOL: NCI 60 cell line single dose screen (SRB)
# Assay type: cell-based
# CONDITION_INFO: Homo sapiens; SK-OV-3 (ovarian cancer), single dose 10^−5 M, 48 h; read-out: Growth inhibition percentage
The compounds listed here are annotated with their inhibition at 10 µM.
MEASURED_PROPERTY: inhibition at 10 µM

1) Cc1nn(-c2ccc(F)cc2)c2ncnc(Cl)c12 :: 13.7%
2) COc1ccc(N2CCN(c3ncnc4c3c(C)nn4-c3ccc(F)cc3)CC2)cc1 :: 3.69%
3) Cc1nn(-c2ccc(F)cc2)c2ncnc(N3CCOCC3)c12 :: -7.07%
4) Cc1nn(-c2ccc(F)cc2)c2ncnc(N3CCN(c4ccc(Cl)cc4)CC3)c12 :: 12.6%
5) Cc1nn(-c2ccc(F)cc2)c2ncnc(N)c12 :: -5.01%
6) Cc1nn(-c2ccc(F)cc2)c2nc[nH]c(=O)c12 :: -2.82%
7) Cc1nn(-c2ccc(F)cc2)c2ncnc(Nc3ccc(F)c(Cl)c3)c12 :: 13.9%
8) COc1cc(C=NNc2ncnc3c2c(C)nn3-c2ccc(F)cc2)ccc1O [Compound 10b] :: 0.81%
9) Cc1nn(-c2ccc(F)cc2)c2ncnc(NN)c12 :: 7.98%
10) COc1cc(C=NNc2ncnc3c2c(C)nn3-c2ccc(F)cc2)cc(OC)c1OC [Compound 10c] :: 7.06%
11) Cc1nn(-c2ccc(F)cc2)c2nc(N)nc(N)c12 :: -6.26%
12) Cc1ccc(Nc2ncnc3c2c(C)nn3-c2ccc(F)cc2)cc1 :: -16.7%

====

The compounds listed here are annotated with their inhibition at 10 µM.
# System: MDA-MB-435
# TEST_PROTOCOL: NCI 60 cell line single dose screen (SRB)
# Assay type: cell-based
# CONDITION_INFO: Homo sapiens; MDA-MB-435 (melanoma), single dose 10^−5 M, 48 h; read-out: Growth inhibition percentage
MEASURED_PROPERTY: inhibition at 10 µM (%)

1) Cc1nn(-c2ccc(F)cc2)c2ncnc(Nc3ccc(F)c(Cl)c3)c12 :: 0.1
2) COc1cc(C=NNc2ncnc3c2c(C)nn3-c2ccc(F)cc2)ccc1O [Compound 10b] :: 4.56
3) Cc1nn(-c2ccc(F)cc2)c2ncnc(Cl)c12 :: -8.83
4) Cc1nn(-c2ccc(F)cc2)c2nc(N)nc(N)c12 :: -7.73
5) Cc1nn(-c2ccc(F)cc2)c2ncnc(NN)c12 :: -9.22
6) Cc1nn(-c2ccc(F)cc2)c2ncnc(N)c12 :: -5.15
7) Cc1ccc(Nc2ncnc3c2c(C)nn3-c2ccc(F)cc2)cc1 :: -6.94

====

The compounds listed here are annotated with their inhibition at 10 µM.
# Test system: SK-MEL-2
# TEST_PROTOCOL: NCI 60 cell line single dose screen (SRB)
# Type: cell-based
# CONDITION_INFO: Homo sapiens; SK-MEL-2 (melanoma), single dose 10^−5 M, 48 h; read-out: Growth inhibition percentage
MEASURED_PROPERTY: inhibition at 10 µM (%)

1. Cc1nn(-c2ccc(F)cc2)c2ncnc(Cl)c12 [Compound 6] :: 11
2. COc1cc(C=NNc2ncnc3c2c(C)nn3-c2ccc(F)cc2)ccc1O [Compound 10b] :: 10.2
3. Cc1nn(-c2ccc(F)cc2)c2ncnc(NN)c12 [Compound 9] :: 18.3
4. Cc1nn(-c2ccc(F)cc2)c2ncnc(N)c12 [Compound 4] :: 1.74
5. Cc1nn(-c2ccc(F)cc2)c2ncnc(N3CCOCC3)c12 [Compound 8a] :: 1.49
6. COc1cc(C=NNc2ncnc3c2c(C)nn3-c2ccc(F)cc2)cc(OC)c1OC [Compound 10c] :: -1.74
7. Cc1nn(-c2ccc(F)cc2)c2nc[nH]c(=O)c12 [Compound 3] :: -5.1

====

The compounds listed here are annotated with their inhibition at 10 µM.
# Tested on: SF-268
# TEST_PROTOCOL: NCI 60 cell line single dose screen (SRB)
# Format: cell-based
# CONDITION_INFO: Homo sapiens; SF-268 (CNS cancer), single dose 10^−5 M, 48 h; read-out: Growth inhibition percentage
MEASURED_PROPERTY: inhibition at 10 µM

1) Cc1nn(-c2ccc(F)cc2)c2ncnc(N3CCOCC3)c12 :: -0.79%
2) Cc1nn(-c2ccc(F)cc2)c2ncnc(Cl)c12 :: -1.16%
3) COc1cc(C=NNc2ncnc3c2c(C)nn3-c2ccc(F)cc2)cc(OC)c1OC [Compound 10c] :: 6.35%

====

# Test system: SNB-75
# TEST_PROTOCOL: NCI 60 cell line single dose screen (SRB)
# Assay type: cell-based
# CONDITION_INFO: Homo sapiens; SNB-75 (CNS cancer), single dose 10^−5 M, 48 h; read-out: Growth inhibition percentage
# Method: Anticancer activity screening of the newly synthesised compounds was measured in vitro utilising 60 different human tumour cell lines provided by US National Cancer Institute according to previously reported standard procedure[27–29] as follows: Cells are inoculated into 96-well microtitre plates in 100 ml. […] Bound stain is subsequently solubilised with 10 mM trizma base, and the absorbance is read on an automated plate reader at a wavelength of 515 nm. […]
MEASURED_PROPERTY: inhibition at 10 µM (%)

1. COc1cc(C=NNc2ncnc3c2c(C)nn3-c2ccc(F)cc2)ccc1O [Compound 10b] :: 17.5
2. Cc1nn(-c2ccc(F)cc2)c2nc[nH]c(=O)c12 :: 0.29
3. Cc1nn(-c2ccc(F)cc2)c2ncnc(N3CCN(c4ccc(Cl)cc4)CC3)c12 :: 0.02
4. COc1ccc(N2CCN(c3ncnc4c3c(C)nn4-c3ccc(F)cc3)CC2)cc1 :: 5.93
5. Cc1nn(-c2ccc(F)cc2)c2ncnc(N)c12 :: 8.18
6. Cc1nn(-c2ccc(F)cc2)c2ncnc(Cl)c12 :: 6.36
7. Cc1nn(-c2ccc(F)cc2)c2ncnc(N3CCOCC3)c12 :: 0.92
8. Cc1nn(-c2ccc(F)cc2)c2nc(N)nc(N)c12 :: 5.33
9. Cc1ccc(Nc2ncnc3c2c(C)nn3-c2ccc(F)cc2)cc1 :: -5.2
10. Cc1nn(-c2ccc(F)cc2)c2ncnc(Nc3ccc(F)c(Cl)c3)c12 :: 25
11. COc1cc(C=NNc2ncnc3c2c(C)nn3-c2ccc(F)cc2)cc(OC)c1OC [Compound 10c] :: 19.5
12. Cc1nn(-c2ccc(F)cc2)c2ncnc(NN)c12 :: -0.56

====

# Tested on: NCI-H226
# TEST_PROTOCOL: NCI 60 cell line single dose screen (SRB)
# Assay type: cell-based
# CONDITION_INFO: Homo sapiens; NCI-H226 (non-small cell lung cancer), single dose 10^−5 M, 48 h; read-out: Growth inhibition percentage
The compounds listed here are annotated with their inhibition at 10 µM.
MEASURED_PROPERTY: inhibition at 10 µM

1) Cc1nn(-c2ccc(F)cc2)c2ncnc(N3CCN(c4ccc(Cl)cc4)CC3)c12 :: 7.59%
2) COc1cc(C=NNc2ncnc3c2c(C)nn3-c2ccc(F)cc2)cc(OC)c1OC [Compound 10c] :: 5.82%
3) Cc1nn(-c2ccc(F)cc2)c2ncnc(Cl)c12 :: 15.1%
4) Cc1nn(-c2ccc(F)cc2)c2ncnc(NN)c12 :: 15.5%
5) COc1ccc(N2CCN(c3ncnc4c3c(C)nn4-c3ccc(F)cc3)CC2)cc1 :: 5.22%
6) Cc1nn(-c2ccc(F)cc2)c2nc[nH]c(=O)c12 :: -9.27%
7) Cc1nn(-c2ccc(F)cc2)c2ncnc(Nc3ccc(F)c(Cl)c3)c12 :: 62.9%
8) Cc1nn(-c2ccc(F)cc2)c2ncnc(N)c12 :: -7.4%
9) Cc1nn(-c2ccc(F)cc2)c2nc(N)nc(N)c12 :: -8.08%
10) Cc1ccc(Nc2ncnc3c2c(C)nn3-c2ccc(F)cc2)cc1 :: -10.2%
11) COc1cc(C=NNc2ncnc3c2c(C)nn3-c2ccc(F)cc2)ccc1O [Compound 10b] :: -2.3%
12) Cc1nn(-c2ccc(F)cc2)c2ncnc(N3CCOCC3)c12 :: -8.48%
